System: L1210 leukemia ip in BDF1 mice, survival T/C
Experiment: NCI In Vivo Anticancer Drug Screen. Data for tumor model L1210 Leukemia (intraperitoneal) in B6D2F1 (BDF1) mice
Conditions: endpoint: mean survival time; dose: 200.0 mg/kg/injection; schedule: Q01DX001 (ip); vehicle: saline; higher = longer survival
Inconclusive results and toxic doses are left out.
Measured metric: T/C

compound=Clc1nnc2c3ccccc3ccn12 value_reported="98 % of control"
compound=CC(=O)CC(=O)Nc1ccc(Cc2ccc(Br)cc2)cc1 value_reported="95 % of control"
compound=Cn1ncc2cncnc21 value_reported="103 % of control"
compound="COC1OC(COC(c2ccccc2)(c2ccccc2)c2ccccc2)C2OC12 (configuration not stated)" value_reported="103 % of control"
compound=O=C(/C(=C/c1ccc(Cl)cc1)c1ccccc1)c1ccc(O)cc1 value_reported="92 % of control"

For every record below, what is its T/C?
1. CC(C)(N)CNCC(C)(C)N
2. CS(=O)(=O)n1c(C(Cl)c2ccccc2)nc2ccccc21 (configuration not stated)

Ans.
111 % of control
104 % of control

For every record below, what is its T/C?
1. O=C(O)c1cscn1
2. Cc1ccc(/C=C\C(=O)OCCCCOC(=O)/C=C/c2ccc(C)cc2)cc1
3. COc1ccc(/C=C2\CN(CCCC(=O)O)C(=O)C2=O)cc1
4. OC1CCCCC1Br (configuration not stated)

Ans.
["103 % of control", "91 % of control", "98 % of control", "113 % of control"]

For every record below, what is its T/C?
1. O=Nc1nc2ncccn2c1-c1ccccc1
2. COC(=O)c1cc(C)cc(Oc2ccccc2N)c1C
3. CCOC(=O)CCCNCCCC(=O)OCC
4. CC1CCCCN1CC(Cl)(Cl)Cl (configuration not stated)

Ans.
103 % of control
102 % of control
103 % of control
94 % of control

For every record below, what is its T/C?
1. O=C(O)CCN1CCN(c2cccc(Cl)c2)CC1
2. COc1ccc(CN2CCCN(Cc3ccc(OC)cc3OC)C2c2ccccc2O)c(OC)c1
3. NC(=O)C[n+]1ccccc1
4. COc1ccc(C2(Br)C(=O)NN=C2C)cc1 (configuration not stated)
5. CC(CCN(CC(=O)O)CC(=O)O)N(CC(=O)O)CC(=O)O (configuration not stated)
6. CC(c1ccccc1)n1cnc2c(=S)nc[nH]c21 (configuration not stated)

Ans.
1: 95 % of control; 2: 90 % of control; 3: 98 % of control; 4: 100 % of control; 5: 101 % of control; 6: 95 % of control

For every record below, what is its T/C?
1. CCOC(=O)C1(C(C)=O)CC=CC1
2. CC(C)(C#N)NC(N)=O
3. O=C1Nc2cccc3cc([N+](=O)[O-])cc1c23
4. CC(C)(CCN)[N+](=O)[O-]

Ans.
1: 104 % of control; 2: 102 % of control; 3: 93 % of control; 4: 96 % of control

For every record below, what is its T/C?
1. CCOCCOCCOC(=O)COCC(=O)OCCOCCOCC
2. CC[CH2][Sn]([CH2]CC)([CH2]CC)[O]C(=O)CN1CCC[CH]([Hg][c]2cccnc2)C1 (configuration not stated)
3. S=C(NCCCN1Cc2ccccc2C1)Nc1ccccc1
4. O=[N+]([O-])c1ccc(NCCO)cc1
5. CC(O)(c1ccccc1)C(C(=O)O)c1ccccc1 (configuration not stated)
6. Cc1c(C)c2cccc(C)c2[nH]c1=O

Ans.
["113 % of control", "104 % of control", "104 % of control", "102 % of control", "103 % of control", "95 % of control"]

For every record below, what is its T/C?
1. O=S(=O)(CC(Cl)c1ccccc1)c1ccc(Br)cc1 (configuration not stated)
2. COc1ccc(CN2CCCN(Cc3ccc(OC)cc3OC)C2c2ccc(F)cc2)c(OC)c1
3. CC1OC=CC(O)C1O (configuration not stated)

Ans.
1. 92 % of control
2. 94 % of control
3. 105 % of control

For every record below, what is its T/C?
1. O=C(O)C(=O)Cc1c(Cl)cccc1[N+](=O)[O-]
2. Cn1cncc1CC1COC(=O)C1C(O)c1ccccc1 (configuration not stated)
3. CN(C(=O)Cc1ccccc1)c1ccccc1[N+](=O)[O-]

Ans.
1. 106 % of control
2. 107 % of control
3. 95 % of control

The measured values listed here are drawn from PubChem BioAssay AID248.
